- target_entity: ADAM8 (Homo sapiens)
- Assay type: biochemical
- Sequence (P78325 17-497): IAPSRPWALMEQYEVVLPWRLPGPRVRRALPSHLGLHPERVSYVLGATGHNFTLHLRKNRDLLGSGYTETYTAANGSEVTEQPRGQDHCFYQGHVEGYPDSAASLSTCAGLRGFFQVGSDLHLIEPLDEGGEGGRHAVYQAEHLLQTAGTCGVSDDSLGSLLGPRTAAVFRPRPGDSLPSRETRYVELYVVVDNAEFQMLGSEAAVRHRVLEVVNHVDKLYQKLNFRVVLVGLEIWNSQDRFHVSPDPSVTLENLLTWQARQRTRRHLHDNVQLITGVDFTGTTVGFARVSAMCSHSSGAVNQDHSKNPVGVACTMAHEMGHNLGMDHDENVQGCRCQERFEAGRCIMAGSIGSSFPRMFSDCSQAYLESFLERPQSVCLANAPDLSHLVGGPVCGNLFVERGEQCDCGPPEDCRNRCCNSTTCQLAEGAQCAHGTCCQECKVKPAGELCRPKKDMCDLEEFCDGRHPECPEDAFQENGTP
measured_endpoint: pIC50
Answer as the number alone; pIC50 is minus log10 of concentration in mol/L.

The reported ADAM8 (Homo sapiens) pIC50 of CNC(=O)[C@@H](NC(=O)[C@H](CC(C)C)[C@H](O)C(=O)NO)C(C)(C)C [BB-2516, Marimastat] is 5.98

* * *

The following compounds are shown together with reported IC50 values.
- target_entity: ADAM8 (Homo sapiens, UniProt P78325)
- Assay type: cell-based
- Sequence (P78325 17-824): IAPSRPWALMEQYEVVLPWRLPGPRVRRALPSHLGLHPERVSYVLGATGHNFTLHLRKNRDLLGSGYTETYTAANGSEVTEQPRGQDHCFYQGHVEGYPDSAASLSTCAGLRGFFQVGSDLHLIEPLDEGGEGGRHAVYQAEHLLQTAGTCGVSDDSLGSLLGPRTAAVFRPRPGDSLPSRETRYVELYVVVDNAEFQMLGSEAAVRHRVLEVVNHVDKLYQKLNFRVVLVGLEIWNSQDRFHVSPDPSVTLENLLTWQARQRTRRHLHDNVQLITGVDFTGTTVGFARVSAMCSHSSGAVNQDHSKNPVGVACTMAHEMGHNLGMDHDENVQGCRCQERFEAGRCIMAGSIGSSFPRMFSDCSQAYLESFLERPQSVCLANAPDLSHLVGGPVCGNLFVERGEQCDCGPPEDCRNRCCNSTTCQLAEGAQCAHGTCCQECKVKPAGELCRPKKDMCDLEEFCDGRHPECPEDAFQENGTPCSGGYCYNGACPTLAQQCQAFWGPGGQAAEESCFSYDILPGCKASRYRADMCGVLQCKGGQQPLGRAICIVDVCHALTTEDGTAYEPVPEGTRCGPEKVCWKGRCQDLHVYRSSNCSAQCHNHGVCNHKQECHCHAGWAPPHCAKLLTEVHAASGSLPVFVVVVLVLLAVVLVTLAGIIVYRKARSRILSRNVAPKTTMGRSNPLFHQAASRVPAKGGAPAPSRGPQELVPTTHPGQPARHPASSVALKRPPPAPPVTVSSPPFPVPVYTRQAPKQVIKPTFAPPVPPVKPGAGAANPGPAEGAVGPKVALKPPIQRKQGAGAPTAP
Write it as a number; the unit µM goes unstated.

1. CNC(=O)[C@H](Cc1ccccc1)NC(=O)[C@H](CC(C)C)[C@H](CSc1cccs1)C(=O)NO | 0.057

Moving on to the next compound.
# compound "CNC(=O)[C@@H](NC(=O)[C@H](CC(C)C)[C@H](O)C(=O)NO)C(C)(C)C" ; its IC50 = 1.25

Where do these numbers come from? They come from paper PMC5014123.
